Origin of values: the supplement of paper PMC7877785

Some sequences, each annotated with its measured self-splicing fitness (ln).
# procedureDetails: self-splicing fitness, log relative to wild type (ln ratio); higher = more splicing; Tetrahymena group I intron in knt gene, E. coli kanamycin selection, DiMSum; sequences stand for … in CUCUCU…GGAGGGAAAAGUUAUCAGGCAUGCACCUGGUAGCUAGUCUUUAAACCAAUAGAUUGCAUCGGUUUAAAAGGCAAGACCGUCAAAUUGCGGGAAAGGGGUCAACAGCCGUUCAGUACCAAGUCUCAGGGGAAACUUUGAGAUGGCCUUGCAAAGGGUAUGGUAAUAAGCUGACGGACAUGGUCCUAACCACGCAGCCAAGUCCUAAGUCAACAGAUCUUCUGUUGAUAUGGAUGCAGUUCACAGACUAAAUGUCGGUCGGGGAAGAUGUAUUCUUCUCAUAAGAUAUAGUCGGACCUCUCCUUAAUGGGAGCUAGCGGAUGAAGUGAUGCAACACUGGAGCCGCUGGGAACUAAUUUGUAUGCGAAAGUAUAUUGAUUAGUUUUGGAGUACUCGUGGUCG;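 note: selection with 25 µg/mL kanamycin versus none on LB agar overnight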
# conditionInfo: 37 °C
// no unit string in output, number only

Would you please look over these solved cases?
GGACAGCAAUAUUACGUUUC = -1.82
AGCGAGCAAUAUUACGUAGA = -2.85
GAUAAGCAAUAUUACGCGUA = -0.968

Returns the measured self-splicing fitness (ln) for the input sequence. Input: "GCACAGCAAUAUUACGCUAA"
-0.281

Also check "UGCUAGCAAUAUUACGAGCG"
-0.792

And the next one, "GGAAAGCAAUAUUACGGGAC" ?
-1.18

Try "UGUUAGCAAUAUUACGAGGA" next.
-1.92

Same lookup for "GCCGAGCAAUAUUACGAGGU" , please.
-2.23

Next record, please: "CAGCAGCAAUAUUACGGACA"
-2.28

---

# procedureDetails: self-splicing fitness, log relative to wild type (ln ratio); higher = more splicing; Tetrahymena group I intron in knt gene, E. coli kanamycin selection, DiMSum; sequences stand for … in CUCUCU…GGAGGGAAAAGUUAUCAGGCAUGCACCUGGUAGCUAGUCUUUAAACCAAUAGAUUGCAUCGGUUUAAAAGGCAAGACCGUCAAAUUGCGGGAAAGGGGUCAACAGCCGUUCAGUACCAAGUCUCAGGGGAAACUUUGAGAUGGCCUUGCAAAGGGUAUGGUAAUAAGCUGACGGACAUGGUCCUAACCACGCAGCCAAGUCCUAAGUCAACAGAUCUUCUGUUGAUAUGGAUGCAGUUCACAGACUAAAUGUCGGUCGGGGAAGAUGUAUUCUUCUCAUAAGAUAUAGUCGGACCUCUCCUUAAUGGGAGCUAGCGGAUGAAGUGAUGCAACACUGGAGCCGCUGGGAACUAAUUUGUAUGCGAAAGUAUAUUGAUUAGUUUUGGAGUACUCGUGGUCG
# conditionInfo: 30 °C
quantityName: self-splicing fitness (ln)

Example cases with answers are listed next.
CUUUAGCAAUAUUACGUGGA = -3.4
CCGUAGCAAUAUUACGGUCA = -1.64
AGACAGCAAUAUUACGGCGC = -0.893
CGCAAGCAAUAUUACGGCUU = -2.5
CGCUAGCAAUAUUACGGCCC = -1.74

Report self-splicing fitness (ln) for "GCACAGCAAUAUUACGGCCC" please.
-0.235

---

# procedureDetails: self-splicing fitness, log relative to wild type (ln ratio); higher = more splicing; Tetrahymena group I intron in knt gene, E. coli kanamycin selection, DiMSum; sequences stand for … in CUCUCU…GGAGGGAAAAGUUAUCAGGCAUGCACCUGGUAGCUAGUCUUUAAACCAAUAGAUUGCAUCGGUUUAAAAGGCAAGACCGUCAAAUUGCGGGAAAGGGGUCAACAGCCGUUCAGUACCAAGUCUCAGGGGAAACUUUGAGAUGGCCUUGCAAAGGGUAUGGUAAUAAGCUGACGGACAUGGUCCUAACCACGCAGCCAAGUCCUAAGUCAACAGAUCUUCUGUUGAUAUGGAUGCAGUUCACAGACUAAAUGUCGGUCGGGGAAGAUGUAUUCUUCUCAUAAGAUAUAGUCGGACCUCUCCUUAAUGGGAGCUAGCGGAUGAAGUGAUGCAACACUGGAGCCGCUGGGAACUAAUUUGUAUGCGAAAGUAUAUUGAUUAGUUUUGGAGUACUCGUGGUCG
# conditionInfo: 37 °C
Label met when self-splicing fitness (ln) >= -2; otherwise not met.

CGCAAGCAAUAUUACGGCUU = not met
CAGUAGCAAUAUUACGCUUU = met
ACUCAGCAAUAUUACGCAGG = met
CUGUAGCAAUAUUACGCAUA = not met
UGAGAGCAAUAUUACGUAUA = met
GCACAGCAAUAUUACGCAUG = met
GGGGAGCAAUAUUACGGCUA = met
UCCUAGCAAUAUUACGAUCU = met
AUUUAGCAAUAUUACGCGGC = not met
GCUCAGCAAUAUUACGUAGA = met

Given "UUCGAGCAAUAUUACGCCUC" , state whether its self-splicing fitness (ln) is at least -2.
met

And then "GGAAAGCAAUAUUACGUCGC" , what is it?
met

Check "ACGUAGCAAUAUUACGUGGA" too.
not met

"GGAUAGCAAUAUUACGGGAC" ?
not met

Moving on to "UCACAGCAAUAUUACGUGUU"
not met

Then "CCAAAGCAAUAUUACGCGGU" ?
met

Now try "UGCGAGCAAUAUUACGCAUA" .
not met

---

# procedureDetails: self-splicing fitness, log relative to wild type (ln ratio); higher = more splicing; Tetrahymena group I intron in knt gene, E. coli kanamycin selection, DiMSum; sequences stand for … in CUCUCU…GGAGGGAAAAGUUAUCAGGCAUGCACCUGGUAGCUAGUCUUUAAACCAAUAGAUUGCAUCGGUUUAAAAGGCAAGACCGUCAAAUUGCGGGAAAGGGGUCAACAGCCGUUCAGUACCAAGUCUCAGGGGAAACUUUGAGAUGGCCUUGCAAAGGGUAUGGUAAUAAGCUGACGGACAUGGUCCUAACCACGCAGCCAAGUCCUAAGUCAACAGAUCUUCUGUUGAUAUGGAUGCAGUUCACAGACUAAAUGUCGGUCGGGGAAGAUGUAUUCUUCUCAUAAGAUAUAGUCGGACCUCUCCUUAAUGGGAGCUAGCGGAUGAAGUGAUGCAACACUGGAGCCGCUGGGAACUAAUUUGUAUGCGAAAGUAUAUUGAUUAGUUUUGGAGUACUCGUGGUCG
# conditionInfo: 30 °C
Records here are stratified by self-splicing fitness (ln); strata: bottom bin: < -4; middle bin: ≥ -4 and < -1; top bin: ≥ -1

Lab log: "CUCCAGCAAUAUUACGUCGA" — assign self-splicing fitness (ln) category
bottom bin

Also "AUGAAGCAAUAUUACGGCAC" ?
top bin

Same for "AAAGAGCAAUAUUACGUACA"
middle bin

Now try "UCUUAGCAAUAUUACGAAAU" .
middle bin

Also check "UGAAAGCAAUAUUACGAACG"
top bin

---

# procedureDetails: self-splicing fitness, log relative to wild type (ln ratio); higher = more splicing; Tetrahymena group I intron in knt gene, E. coli kanamycin selection, DiMSum; sequences stand for … in CUCUCU…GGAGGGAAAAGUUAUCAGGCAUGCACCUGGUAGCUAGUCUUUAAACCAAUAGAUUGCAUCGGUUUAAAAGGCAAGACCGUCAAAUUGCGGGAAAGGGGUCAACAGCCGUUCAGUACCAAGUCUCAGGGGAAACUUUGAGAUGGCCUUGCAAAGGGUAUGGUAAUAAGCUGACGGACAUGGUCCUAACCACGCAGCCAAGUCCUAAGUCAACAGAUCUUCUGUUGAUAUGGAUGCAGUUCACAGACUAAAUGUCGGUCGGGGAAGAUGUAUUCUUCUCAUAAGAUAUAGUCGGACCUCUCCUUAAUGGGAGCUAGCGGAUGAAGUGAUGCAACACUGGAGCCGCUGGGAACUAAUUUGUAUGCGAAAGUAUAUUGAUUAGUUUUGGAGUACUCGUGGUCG
# conditionInfo: 30 °C
quantityName: self-splicing fitness (ln)
Number only, no unit.

Look over these answered cases.
AAACAGCAAUAUUACGACGU = -0.232
UAUUAGCAAUAUUACGUUAG = -2.33
UCCAAGCAAUAUUACGCAGG = -3.56
GGUGAGCAAUAUUACGAGCG = -0.194
UCUCAGCAAUAUUACGAUAA = -2.15

GET /values?readout=self-splicing fitness (ln)&item= "CAUGAGCAAUAUUACGUGUA"
-3.33

Next record, please: "AAGAAGCAAUAUUACGGUAC"
-2.37

Also check "AUCAAGCAAUAUUACGGAGC"
-2.98

Do the same for "CACCAGCAAUAUUACGGUAG" please
-1.97

Try this sequence next: "CGGCAGCAAUAUUACGUCUG"
-2.32

Please give the result for "UUGGAGCAAUAUUACGGCAG" too.
-1.6

Entry to check: "GUUGAGCAAUAUUACGCCGC"
-3.06

# iterate: "UAUUAGCAAUAUUACGUUUC"
-3.79

Try the sequence "UCCGAGCAAUAUUACGUUUG"
-3.31

Repeat for the following sequence: "CACCAGCAAUAUUACGUCGA"
-1.89

Please answer likewise for "CUUAAGCAAUAUUACGACCA"
-3.3
